Test Protocol: Shh-driven Gli reporter inhibition – luminescence, Shh-LIGHT2 cells, Gli-luciferase, primary screen (AID 2313);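 note: pathway switched on by Shh-conditioned medium diluted 1 in 25 in low serum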
Condition Parameters: 30 h
Screen size: about 22,000 compounds; about 460 (2.1%) were called active. About 2% were inconclusive and are not listed.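 Rule for the calls: active = mean inhibition across valid replicates above about 65% (limit read from the data); inconclusive = mean under the limit, yet half or more replicates past it; inactive = the rest.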 The sample as a whole holds a higher share of actives than the screen did.
Choose one outcome from this list and give only that: yes (active), no (inactive)

Ask: What call does the record list for `O=c1n(Cc2ccccc2)c2ccccc2n1Cc1ccccc1` ?
Reply: yes

Ask: Each molecule tested received a call. Report the one for `CC(=O)Nc1ccc(Nc2c3c4c(cccc4[nH]c2=O)C(=O)c2ccccc2-3)cc1` .
Reply: yes

Ask: Which outcome was entered for the molecule `COc1cc(/C=C2\Oc3cc(O)cc(O)c3C2=O)ccc1O` in this test?
Reply: no

Ask: Called result for `CC(C)NC(=O)Nc1ccc2c(c1)CC(=O)N([C@H](C)CO)C[C@H](C)[C@H](CN(C)Cc1ccc3c(c1)OCO3)O2`
Reply: no

Ask: # outcome recorded in this test, key = `C[C@@H]1CN([C@H](C)CO)C(=O)c2cccc(NS(=O)(=O)c3ccc(Cl)cc3)c2O[C@H]1CN(C)C(=O)NC1CCCCC1`
Reply: no

Ask: Tell me the assay call for `C[C@H]1CN([C@@H](C)CO)C(=O)Cc2cc(NS(=O)(=O)c3cn(C)cn3)ccc2O[C@@H]1CN(C)C(=O)Nc1ccc2c(c1)OCO2` please.
Reply: no

Ask: Hi team, can someone confirm the assay call for `COc1cc([C@H]2OC[C@H]3[C@@H]2CO[C@@H]3c2cc(OC)c(O[C@@H]3O[C@H](CO)[C@@H](O)[C@H](O)[C@H]3O)c(OC)c2)cc(OC)c1O` ?
Reply: no

Ask: Tell me the recorded outcome of this test for `CC(C)(C)c1ccc(Cn2c(=N)n(CC(=O)O)c3ccccc32)cc1` .
Reply: no

---

Test Protocol: Shh-driven Gli reporter inhibition – luminescence, Shh-LIGHT2 cells, Gli-luciferase, primary screen (AID 2313);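 note: pathway switched on by Shh-conditioned medium diluted 1 in 25 in low serum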
Condition Parameters: 30 h, active compounds read high
The campaign covered roughly 22,000 compounds. About 460 (2.1%) were called active. About 2% were inconclusive and are not listed. This is one part of a sample in which actives are shown more often than they occur.
Endpoint Name: inhibition (%)
Field: numeric (%). Do not append units.

Ask: Requested field: inhibition. Item: `O=C1C2CC3CC1CC(C(=O)O)(C3)C2`
Reply: -15.4

Ask: Quick check: inhibition of `C[C@H]1CN([C@@H](C)CO)C(=O)c2cccc(NS(=O)(=O)c3ccc(F)cc3)c2O[C@@H]1CN(C)Cc1ccncc1` ?
Reply: 3.57

Ask: What value of inhibition has been recorded for this entry: `O=C(NCCN1CCCCC1)Nc1cccc2ccccc12`
Reply: 48.1

Ask: Look up inhibition for this compound: CC1(C)C2CC[C@]3(C)C(C(=O)C=C4[C@@H]5C[C@@](C)(C(=O)O)CC[C@]5(C)CC[C@]43C)[C@@]2(C)CC[C@@H]1O (stereo partly specified)
Reply: 66.5

Ask: Need inhibition of `C[C@@H]1CN([C@H](C)CO)C(=O)c2cccc(NS(=O)(=O)c3cn(C)cn3)c2O[C@H]1CN(C)Cc1ccc(C(=O)O)cc1` , thanks.
Reply: 24.8

Ask: Please give the measured inhibition for this compound: `CC[C@]1(O)C[C@@H]2CN(CCc3c([nH]c4ccccc34)[C@@](C(=O)OC)(c3cc4c(cc3OC)N(C)[C@H]3[C@@](O)(C(=O)OC)[C@H](OC(C)=O)[C@]5(CC)C=CCN6CC[C@]43[C@@H]65)C2)C1`
Reply: 88.5

Ask: What value of inhibition has been recorded for this entry: `O=S(=O)(NCCc1ccccc1)c1ccccc1`
Reply: -19.7

Ask: inhibition lookup needed for `O=C(O)c1ccc(NS(=O)(=O)c2ccc3c4c(cccc24)C(=O)N3)cc1` , thanks.
Reply: -9.19

Ask: Look at this compound and give its reported inhibition. CC1(C)CC[C@@]2(C(=O)O)C(C1)C1=CCC3[C@@]4(C)CC[C@H](O)C(C)(C)C4CC[C@@]3(C)[C@]1(C)C[C@H]2O (stereo partly specified)
Reply: -24.6

Ask: Need inhibition, item `Cc1ccc(S(=O)(=O)N(C)C[C@@H]2Oc3c(NC(=O)C4CC4)cccc3C(=O)N([C@H](C)CO)C[C@H]2C)cc1`
Reply: -12.6

Ask: Name the recorded inhibition for `Cc1ccc(NC(=O)CC(=O)Nc2ccc(C)cc2)cc1` .
Reply: -21.5

Ask: // query inhibition value for entry C[C@@H]1CC[C@]2(C(=O)O)CC[C@]3(C)C(=CCC4[C@@]5(C)CC[C@H](O)[C@](C)(C(=O)O)C5CC[C@]43C)C2[C@]1(C)O (stereo partly specified)
Reply: -18.2

Ask: Give the measured inhibition of COCc1nc2c([nH]1)C(c1ccccc1COc1ccc(Cl)cc1)C(C#N)=C(N)O2 (stereo unspecified) .
Reply: -16.6

Ask: What inhibition value was documented for this compound, `COc1ccc(NC(=O)Nc2cccc3c2O[C@@H](CN(C)S(=O)(=O)c2ccc(C)cc2)[C@H](C)CN([C@@H](C)CO)C3=O)cc1` ?
Reply: 26

Ask: Which value of inhibition has been reported for `C[C@H](CO)N1C[C@H](C)[C@H](CN(C)C(=O)NC2CCCCC2)Oc2c(NC(=O)C3CC3)cccc2C1=O` in the records?
Reply: -11.9

Ask: Entry `COc1ccc(S(=O)(=O)N(C)C[C@H]2Oc3ccc(NC(=O)C4CC4)cc3CC(=O)N([C@@H](C)CO)C[C@@H]2C)cc1` has what inhibition?
Reply: -32.4
